Source listed as patent US20200255516A1.

Field: kon. Provide a value for each of the binders that follow.
System under test: T1, cynoTIGIT-mFc (fusion protein of cynoTIGIT extracellular domain and mouse IgG2a Fc fragment) (cynomolgus)
T1 construct: also called monkey TIGIT; cynomolgus TIGIT-mFc fusion protein
T1 sequence (chain, as listed by the source limits assumed): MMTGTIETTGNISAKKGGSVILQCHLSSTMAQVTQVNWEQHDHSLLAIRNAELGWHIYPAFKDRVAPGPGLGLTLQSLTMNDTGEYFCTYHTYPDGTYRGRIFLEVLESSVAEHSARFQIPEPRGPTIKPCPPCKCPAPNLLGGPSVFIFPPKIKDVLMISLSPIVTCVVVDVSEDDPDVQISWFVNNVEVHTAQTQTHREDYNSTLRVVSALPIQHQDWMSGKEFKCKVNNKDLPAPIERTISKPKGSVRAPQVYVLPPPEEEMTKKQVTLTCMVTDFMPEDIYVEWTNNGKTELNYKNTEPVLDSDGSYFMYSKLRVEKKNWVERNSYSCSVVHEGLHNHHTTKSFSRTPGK
Assay info: SPR (Biacore T200), antibody held by Fc affinity capture, cynoTIGIT-mFc in mobile phase, 1:1 Langmuir fit
The response must be a number in M⁻¹ s⁻¹ with no trailing unit.

Asked: Endpoint output: kon of h1709-10 (antibody, human IgG4 S228P, kappa, V domains shown, also called humanized TIGIT antibody h1709-10) VH: EVQLVQSGAEVKKPGASVKVSCKASGYTFTDYYMHWVRQAPGQGLEWMGLVYPYNDNTGYNRKFKGRVTMTVDTSTSTVYMELNSLRSEDTAVYYCARGGPSNWNYFDYWGQGTLVTVSS VL: DIQMTQSPSSLSASVGDRVTITCKASQNVVTAVAWYQQKPGKSPKLLIYSASNRYTGVPDRFSGSGSGTDFTLTISSLQPEDFATYFCQQYTLYPLTFGGGTKVEIKR . Value?
Given back: 1.39e+06

Asked: # repeat for h1708-04 (antibody, human IgG4 S228P, kappa, V domains shown, also called humanized TIGIT antibody h1708-04) VH: EVQLVQSGAEVKKPGASVKVSCKASGYTFTNYWMHWVRQAPGQGLEWMGRIDPDSTGSKYNEKFKTRVTMTRDTSTSTVYMELSSLRSEDTAVYYCAREGAYGYYFDYWGQGTLVTVSS VL: DIQMTQSPSSLSASVGDRVTITCRASENIYSYLAWYQQKPGKSPKLLIYNARTLAEGVPSRFSGSGSGTDFTLTISSLQPEDFATYYCQYHSGSPLPFGGGTKVEIKR
Given back: 1.24e+06

Asked: # repeat for 22G2-H3Q (antibody, human IgG4 S228P, kappa, V domains shown) VH: QVQLQESGPGLVKPSETLSLTCTVSGGSVSSGIYYWSWIRQPPGKGLEWIGYIYYSGSTNYNPSLKSRVTISVDTSKNQFSLKLSSVTAADTAVYYCARDYYVSGNYYNVDYYFFGVDVWGQGTTVTVSS VL: EIVLTQSPATLSLSPGERATLSCRASQSVSSYLAWYQQKPGQAPRLLIYDASNRATGIPARFSGSGSGTDFTLTISSLEPEDFAVYYCQQRSNWPPLFTFGPGTKVDIKR
Given back: 2.44e+06

Asked: # repeat for h1710-01 (antibody, human IgG4 S228P, kappa, V domains shown, also called humanized TIGIT antibody h1710-01) VH: EVQLVQSGAEVKKPGASVKVSCKASGYTFTNYYMHWVRQAPGQGLEWMGRIDPTSGATKYNDNFKGRVTMTRDTSTSTVYMELSSLRSEDTAVYYCAREGGFGYYFDYWGQGTTVTVSS VL: DIQMTQSPSSLSASVGDRVTITCRTSENIFTYLAWYQQKPGKAPKLLIYNAKTFAEGVPSRFSGSGSGTDFTLTISSLQPEDFATYYCQHHYGIPLPFGQGTKLEIKR
Given back: 1.15e+06
